biological target: HLA-A*03:01 (Homo sapiens, UniProt P04439); assay: REVEAL Epitope Discovery System in vitro MHC-peptide binding assay; details: REVEAL score, binding normalized to positive control peptide set at 100%; greater than 50 considered good or high affinity binding
No end group written: not given here.
Response key: label 1 means A*03:01 In Vitro >= 2; label 0 means A*03:01 In Vitro < 2.

>  <monomer.sequence>
WVKRGNKKL

>  <category.label>
label 0

$$$$
>  <monomer.sequence>
FWVHRGRKK

>  <category.label>
label 1

$$$$
>  <monomer.sequence>
IIFWVHRGR

>  <category.label>
label 1

$$$$
>  <monomer.sequence>
FWVSRGRKK

>  <category.label>
label 1

$$$$
>  <monomer.sequence>
WVLRGRKKL

>  <category.label>
label 0

$$$$
>  <monomer.sequence>
WVKRGRKKA

>  <category.label>
label 0

$$$$
>  <monomer.sequence>
IIFWVQRGS

>  <category.label>
label 1

$$$$
>  <monomer.sequence>
FWVQRGSKK

>  <category.label>
label 0

$$$$
>  <monomer.sequence>
IFWVHRGRK

>  <category.label>
label 1

$$$$
>  <monomer.sequence>
WVQRGNKKL

>  <category.label>
label 0

$$$$
>  <monomer.sequence>
IFWVQRGRK

>  <category.label>
label 1

$$$$
>  <monomer.sequence>
VAFIIFWVL

>  <category.label>
label 0

$$$$
>  <monomer.sequence>
VAFIIFWVQ

>  <category.label>
label 0

$$$$
>  <monomer.sequence>
WVQRGNKKA

>  <category.label>
label 0

$$$$
>  <monomer.sequence>
IFWVQRGNK

>  <category.label>
label 1

$$$$
>  <monomer.sequence>
IFWVKRGRK

>  <category.label>
label 1

$$$$
>  <monomer.sequence>
AFIIFWVQR

>  <category.label>
label 0

$$$$
>  <monomer.sequence>
FWVKRGHKK

>  <category.label>
label 1

$$$$
>  <monomer.sequence>
AFIIFWVHR

>  <category.label>
label 0

$$$$
>  <monomer.sequence>
FIIFWVQRG

>  <category.label>
label 0

$$$$
>  <monomer.sequence>
WVKRGLKKL

>  <category.label>
label 1

$$$$
>  <monomer.sequence>
FWVKRGSKK

>  <category.label>
label 1

$$$$
>  <monomer.sequence>
IFWVLRGRK

>  <category.label>
label 1

$$$$
>  <monomer.sequence>
FIIFWVKRG

>  <category.label>
label 0

$$$$
>  <monomer.sequence>
AFIIFWVLR

>  <category.label>
label 0

$$$$
>  <monomer.sequence>
IIFWVQRGR

>  <category.label>
label 1

$$$$
>  <monomer.sequence>
FWVKRGRKK

>  <category.label>
label 1

$$$$
>  <monomer.sequence>
FIIFWVSRG

>  <category.label>
label 0

$$$$
>  <monomer.sequence>
IFWVKRGAK

>  <category.label>
label 1

$$$$
>  <monomer.sequence>
VAFIIFWVK

>  <category.label>
label 0

$$$$
>  <monomer.sequence>
WVKRGRKKS

>  <category.label>
label 0

$$$$
>  <monomer.sequence>
IIFWVSRGR

>  <category.label>
label 1

$$$$
>  <monomer.sequence>
IIFWVQRGA

>  <category.label>
label 1

$$$$
>  <monomer.sequence>
IFWVKRGSK

>  <category.label>
label 1

$$$$
>  <monomer.sequence>
FIIFWVLRG

>  <category.label>
label 0

$$$$
>  <monomer.sequence>
WVHRGRKKL

>  <category.label>
label 1

$$$$
>  <monomer.sequence>
FWVKRGAKK

>  <category.label>
label 1

$$$$
>  <monomer.sequence>
IIFWVKRGL

>  <category.label>
label 1

$$$$
>  <monomer.sequence>
FIIFWVHRG

>  <category.label>
label 0

$$$$
>  <monomer.sequence>
VAFIIFWVR

>  <category.label>
label 0

$$$$
>  <monomer.sequence>
IIFWVKRGH

>  <category.label>
label 1

$$$$
>  <monomer.sequence>
WVKRGAKKL

>  <category.label>
label 1

$$$$
>  <monomer.sequence>
WVKRGSKKL

>  <category.label>
label 0

$$$$
>  <monomer.sequence>
IFWVARGRK

>  <category.label>
label 1

$$$$
>  <monomer.sequence>
AFIIFWVKR

>  <category.label>
label 1

$$$$
